System: MCF7
PROTOCOL TEXT: NCI-60 cell line panel
Type: cell-based
REPORTED CONDITIONS: Homo sapiens, 48 hours
QUANTITY MEASURED: IC50 (nM)
Number in nM, nothing else.

Enquiry: Find IC50 (MCF7) for the entry O=C1OCC2=C1C(c1cccc(F)c1)c1cc3c(cc1N2CCO)OCO3 (stereo not shown) [SU056]
Return: 1440

###

Test system: SR
PROTOCOL TEXT: NCI-60 cell line panel
Type: cell-based
REPORTED CONDITIONS: Homo sapiens, 48 hours
QUANTITY MEASURED: pIC50
// field semantics: pIC50 = negative decimal log of concentration (mol/L)

Enquiry: Find pIC50 (SR) for the entry O=C1OCC2=C1C(c1cccc(F)c1)c1cc3c(cc1N2CCO)OCO3 (stereo not shown) [SU056]
Return: 6.53

###

Tested on: OVCAR-5
PROTOCOL TEXT: NCI-60 cell line panel
Format: cell-based
REPORTED CONDITIONS: Homo sapiens, 48 hours
QUANTITY MEASURED: IC50
The reply should consist of the numeric value with the unit placed after it.

Enquiry: Please give the measured IC50 for this compound: O=C1OCC2=C1C(c1cccc(F)c1)c1cc3c(cc1N2CCO)OCO3 (stereo not shown) [SU056]
Return: 4.33 µM

###

Tested on: UO-31
PROTOCOL TEXT: NCI-60 cell line panel
Assay type: cell-based
REPORTED CONDITIONS: Homo sapiens, 48 hours
QUANTITY MEASURED: IC50 (nM)
Number in nM, nothing else.

Enquiry: Please give the measured IC50 for this compound: O=C1OCC2=C1C(c1cccc(F)c1)c1cc3c(cc1N2CCO)OCO3 (stereo not shown) [SU056]
Return: 2880

###

Tested on: A498
PROTOCOL TEXT: NCI-60 cell line panel
Assay type: cell-based
REPORTED CONDITIONS: Homo sapiens, 48 hours
QUANTITY MEASURED: IC50 (µM)
Number in µM, nothing else.

Enquiry: Please give the measured IC50 for this molecule: O=C1OCC2=C1C(c1cccc(F)c1)c1cc3c(cc1N2CCO)OCO3 (stereo not shown)
Return: 1.11

###

PROTOCOL TEXT: Liver microsomes metabolic profiling
Type: in vitro ADME
QUANTITY MEASURED: half-life (min)
Number in min, nothing else.

Enquiry: Please give the measured half-life for this compound: O=C1OCC2=C1C(c1cccc(F)c1)c1cc3c(cc1N2CCO)OCO3 (stereo not shown)
Return: 40

###

System: CAKI-1
PROTOCOL TEXT: NCI-60 cell line panel
Assay type: cell-based
REPORTED CONDITIONS: Homo sapiens, 48 hours
QUANTITY MEASURED: pIC50
// field semantics: pIC50 = negative decimal log of concentration (mol/L)

Enquiry: Please give the measured pIC50 for this compound: O=C1OCC2=C1C(c1cccc(F)c1)c1cc3c(cc1N2CCO)OCO3 (stereo not shown)
Return: 5.91

###

Test system: IGROV1
PROTOCOL TEXT: NCI-60 cell line panel
Assay type: cell-based
REPORTED CONDITIONS: Homo sapiens, IGROV-1, 48 hours
QUANTITY MEASURED: IC50 (µM)
Number in µM, nothing else.

Enquiry: Please give the measured IC50 for this molecule: O=C1OCC2=C1C(c1cccc(F)c1)c1cc3c(cc1N2CCO)OCO3 (stereo not shown) [SU056]
Return: 4.19
